system: MDA-MB-231; assay: Cytotoxicity against human MDA-MB-231 cells assessed as cell viability at 100 ug/ml after 24 to 48 hrs by trypan blue exclusion assay (reference value: 86.21 +/- 1.80%); assay type: functional; conditions: read-out: Activity
Result Type: viability at 100 µg/mL (%)
State the answer as a number, implicitly in %.

Input line: Endpoint output: viability at 100 µg/mL of Cc1ccc(-c2cc(C(F)(F)F)nn2-c2ccc(S(N)(=O)=O)cc2)cc1 . Value?
Output line: 11.4

Input line: Endpoint output: viability at 100 µg/mL of Cc1nc(-c2ccc(OCC(C)C)c(C#N)c2)sc1C(=O)n1ccc(N)nc1=O . Value?
Output line: 29.2

Input line: Endpoint output: viability at 100 µg/mL of Cc1nc(-c2ccc(OCC(C)C)c(C#N)c2)sc1C(=O)NCc1cccc(F)c1 . Value?
Output line: 54.3

###

system: MDA-MB-231; assay: Cytotoxicity against human MDA-MB-231 cells assessed as cell viability at 10 ug/ml after 24 to 48 hrs by trypan blue exclusion assay (reference value: 87.54 +/- 2.11%); format: functional; settings: read-out: Activity
Attribute: viability at 10 µg/mL
State the answer as a number, implicitly in %.

Input line: Endpoint output: viability at 10 µg/mL of Cc1nc(-c2ccc(OCC(C)C)c(C#N)c2)sc1C(=O)OCC(C)C . Value?
Output line: 44.2

Input line: Endpoint output: viability at 10 µg/mL of Cc1nc(-c2ccc(OCC(C)C)c(C#N)c2)sc1C(=O)NCc1ccccc1F . Value?
Output line: 58.3

Kindly review the next compound as well.
Input line: Endpoint output: viability at 10 µg/mL of Cc1ccc(-c2cc(C(F)(F)F)nn2-c2ccc(S(N)(=O)=O)cc2)cc1 . Value?
Output line: 17.3

###

tested on: MDA-MB-231; assay: Cytotoxicity against human MDA-MB-231 cells assessed as cell viability at 10 ug/ml after 24 to 48 hrs by trypan blue exclusion assay (reference value: 87.54 +/- 2.11%); format: functional; details: read-out: Activity
Result Type: viability at 10 µg/mL (%)
State the answer as a number, implicitly in %.

Would you please look over these solved cases?
Input line: Endpoint output: viability at 10 µg/mL of Cc1nc(-c2ccc(OCC(C)C)c(C#N)c2)sc1C(=O)n1cc(F)c(N)nc1=O . Value?
Output line: 74.6

Input line: Endpoint output: viability at 10 µg/mL of Cc1nc(-c2ccc(OCC(C)C)c(C#N)c2)sc1C(=O)NCc1ccc(F)cc1 . Value?
Output line: 21.8

Input line: Endpoint output: viability at 10 µg/mL of Cc1nc(-c2ccc(OCC(C)C)c(C#N)c2)sc1C(=O)NCc1ccccc1 . Value?
Output line: 73.6

Input line: Endpoint output: viability at 10 µg/mL of Cc1nc(-c2ccc(OCC(C)C)c(C#N)c2)sc1C(=O)n1ccc(N)nc1=O . Value?
Output line: 40.9

Input line: Endpoint output: viability at 10 µg/mL of Cc1nc(-c2ccc(OCC(C)C)c(C#N)c2)sc1C(=O)N1CCC(c2noc3cc(F)ccc23)CC1 . Value?
Output line: 64.6

Kindly review the next compound as well.
Input line: Endpoint output: viability at 10 µg/mL of Cc1nc(-c2ccc(OCC(C)C)cc2)sc1C(=O)O . Value?
Output line: 71.2

###

tested on: MDA-MB-231; test: Cytotoxicity against human MDA-MB-231 cells assessed as cell viability at 100 ug/ml after 24 to 48 hrs by trypan blue exclusion assay (reference value: 86.21 +/- 1.80%); assay type: functional; settings: read-out: Activity
Recorded viability at 100 µg/mL determines the label; the label ranges are class 1 (below 40%), class 2 (40% to below 60%), class 3 (60% or more)

As a guide, the following entries are already answered.
Input line: Consider COC(=O)c1sc(-c2ccc(OCC(C)C)c(C#N)c2)nc1C . To which viability at 100 µg/mL class does it belong?
Output line: class 3

Input line: Consider Cc1nc(-c2ccc(OCC(C)C)c(C#N)c2)sc1C(=O)NCc1ccccc1F . To which viability at 100 µg/mL class does it belong?
Output line: class 2

Please examine the following record next.
Input line: Consider Cc1nc(-c2ccc(OCC(C)C)c(C#N)c2)sc1C(=O)N1CCC(c2noc3cc(F)ccc23)CC1 . To which viability at 100 µg/mL class does it belong?
Output line: class 2

###

test system: MDA-MB-231; experiment: Cytotoxicity against human MDA-MB-231 cells assessed as cell viability at 10 ug/ml after 24 to 48 hrs by trypan blue exclusion assay (reference value: 87.54 +/- 2.11%); format: functional; details: read-out: Activity
Result Type: viability at 10 µg/mL (%)
State the answer as a number, implicitly in %.

Input line: Endpoint output: viability at 10 µg/mL of COC(=O)c1sc(-c2ccc(OCC(C)C)c(C#N)c2)nc1C . Value?
Output line: 76.7

Input line: Endpoint output: viability at 10 µg/mL of Cc1nc(-c2ccc(OCC(C)C)c(C#N)c2)sc1C(=O)O . Value?
Output line: 38.3

Input line: Endpoint output: viability at 10 µg/mL of Cc1nc(-c2ccc(OCC(C)C)c(C#N)c2)sc1C(=O)Nc1ccccc1 . Value?
Output line: 62.7

Input line: Endpoint output: viability at 10 µg/mL of Cc1nc(-c2ccc(OCC(C)C)c(C#N)c2)sc1C(=O)NCc1cccc(F)c1 . Value?
Output line: 64.3

###

tested on: MDA-MB-231; assay: Cytotoxicity against human MDA-MB-231 cells assessed as cell viability at 100 ug/ml after 24 to 48 hrs by trypan blue exclusion assay (reference value: 86.21 +/- 1.80%); format: functional; conditions: read-out: Activity
Decide using viability at 100 µg/mL alone. Strictly below 40%: t. Equal to or above 40%: f.

Input line: Criterion: viability at 100 µg/mL strictly below 40%. Is it met by Cc1nc(-c2ccc(OCC(C)C)cc2)sc1C(=O)O ?
Output line: f

Input line: Criterion: viability at 100 µg/mL strictly below 40%. Is it met by Cc1nc(-c2ccc(OCC(C)C)c(C#N)c2)sc1C(=O)NCc1ccccc1 ?
Output line: f

Input line: Criterion: viability at 100 µg/mL strictly below 40%. Is it met by Cc1nc(-c2ccc(OCC(C)C)c(C#N)c2)sc1C(=O)O ?
Output line: t

Input line: Criterion: viability at 100 µg/mL strictly below 40%. Is it met by Cc1nc(-c2ccc(OCC(C)C)c(C#N)c2)sc1C(=O)Nc1ccccc1 ?
Output line: f

Input line: Criterion: viability at 100 µg/mL strictly below 40%. Is it met by Cc1nc(-c2ccc(OCC(C)C)c(C#N)c2)sc1C(=O)n1cc(F)c(N)nc1=O ?
Output line: f

Next:
Input line: Criterion: viability at 100 µg/mL strictly below 40%. Is it met by Cc1nc(-c2ccc(OCC(C)C)c(C#N)c2)sc1C(=O)NCc1ccc(F)cc1 ?
Output line: t

Input line: Criterion: viability at 100 µg/mL strictly below 40%. Is it met by Cc1nc(-c2ccc(OCC(C)C)c(C#N)c2)sc1C(=O)OCC(C)C ?
Output line: t

Values from ChEMBL document CHEMBL3352197
